Reported pIC50 values for a set of compounds
Test system: human cervix cancer cells Hela
Run Description: Plk Cell Proliferation Inhibition Assay (CCK8, 72 hours)
Type: cell-based
Assay Setup: Hela cells highly expressing Plk
Remember the convention: pIC50 equals -log10 of concentration in molar.

In: Report pIC50, nothing else, for this compound: CC[C@@H]1C(=O)N(C)c2cnc(Nc3ccc(C(=O)N[C@H]4C[C@@H]5CN(C)C[C@@H]5C4)c4c3OC(C)(C)C4)nc2N1C1CCCC1 [Example 9]
Out: 8.70

In: Give me measured pIC50, please, for this compound: CC[C@@H]1C(=O)N(C)c2cnc(Nc3ccc(C(=O)NC4CCN(C)CC4)c4c3OC(CN(C)C)C4)nc2N1C1CCCC1 (some centres unmarked) [Example 29]
Out: 7.52

In: Give the reported value of pIC50 for this record: CC[C@@H]1C(=O)N(C)c2cnc(Nc3ccc(C(=O)N[C@H]4CC[C@@H](N5CCN(CC6CC6)CC5)CC4)c4c3OCC4)nc2N1C(C)C [Example 44]
Out: 8.30

In: // fetch pIC50 given entry CC[C@@H]1C(=O)N(C)c2cnc(Nc3ccc(C(=O)NC[C@@H](O)CN4CCN(C)CC4)c4c3OCC4)nc2N1C1CCCC1 [Example 25]
Out: 8.52

In: Please give measured pIC50 of the following entry: CC[C@@H]1C(=O)N(C)c2cnc(Nc3ccc(C(=O)NC[C@H]4CN5CCC[C@H]5CO4)c4c3OCC4)nc2N1C1CCCC1 [Example 26]
Out: 8.52

In: Provide measured pIC50 value, entry: CC[C@@H]1C(=O)N(C)c2cnc(Nc3ccc(C(=O)NCC4CN(C)CCO4)c4c3OCC4)nc2N1C1CCCC1 (some centres unmarked) [Example 2]
Out: 8.10

In: For the compound CC[C@@H]1C(=O)N(C)c2cnc(Nc3ccc(C(=O)NC[C@H](O)CN4CCN(C)CC4)c4c3OCC4)nc2N1C1CCCC1 [Example 8] , report pIC50.
Out: 8.52

In: Could you please provide reported pIC50 for CC[C@@H]1C(=O)N(C)c2cnc(Nc3ccc(C(=O)N[C@H]4CC[C@H](N5CCN(C)CC5)CC4)c4c3OCC4)nc2N1C1CCCC1 [Example 19] ? Thanks!
Out: 8.52

In: Consider the compound CC[C@@H]1C(=O)N(C)c2cnc(Nc3ccc(C(=O)N[C@H]4CC[C@H](N5CCN(CC6CC6)CC5)CC4)c4c3OCC4)nc2N1C1CCCC1 [Example 34] and give its recorded pIC50.
Out: 9.15

In: Return pIC50 (reported value) for this compound: CC[C@@H]1C(=O)N(C)c2cnc(Nc3ccc(C(=O)N[C@H]4CC[C@@H](N5CCN(CC6CC6)CC5)CC4)c4c3OCC4)nc2N1C1CCCC1 [Example 12]
Out: 9.10

In: Determine from records and report pIC50 for CC[C@@H]1C(=O)N(C)c2cnc(Nc3ccc(C(=O)NC[C@@H](CN4CCN(CC5CC5)CC4)OC)c4c3OCC4)nc2N1C1CCCC1 [Example 35]
Out: 8.70

In: Identify measured pIC50 corresponding to CC[C@@H]1C(=O)N(C)c2cnc(Nc3ccc(C(=O)NC[C@@H](O)CN4CCN(C)CC4)c4c3OC(C)(C)C4)nc2N1C1CCCC1 [Example 20]
Out: 8.10

In: Quick one: give measured pIC50 for CC[C@@H]1C(=O)N(C)c2cnc(Nc3ccc(C(=O)NC[C@H](O)CN4CCN(C)CC4)c4c3OCC4)nc2N1C(C)C [Example 32]
Out: 8.05

In: Query pIC50 for CC[C@@H]1C(=O)N(C)c2cnc(Nc3ccc(C(=O)NC[C@@H]4CN(C)CCO4)c4c3OCC4)nc2N1C1CCCC1 [Example 15]
Out: 8.52
